# Test system: tet-on competent MLL/AF9+Nras AML
# Test details: Pooled negative selection RNAi screening (deep sequencing)
# Format: cell-based, mouse
# Condition parameters: deep sequencing reads, On Dox compared to T0
Provide the recorded Fold depletion in AML for the entries that follow.
Remember to follow the number with its unit.

INSERT INTO assay_data (molecule, quantity_measured, observed_measurement) VALUES
  ('Kit.1241: neutral control shRNA, SEQ ID NO: 194 (nucleic acid) TGCTGTTGACAGTGAGCGATTCCGTGACATTCAACGTTTATAGTGAAGCCACAGATGTATAAACGTTGAATGTCACGGAAGTGCCTACTGCCTCGGA', 'Fold depletion in AML', '1.88 Fold');

Next up:
Input: Given the molecule Wnt10b.1717: shRNA, SEQ ID NO: 190 (nucleic acid) TGCTGTTGACAGTGAGCGCCTCGAATAGACTAAGATGAAATAGTGAAGCCACAGATGTATTTCATCTTAGTCTATTCGAGTTGCCTACTGCCTCGGA , write its reported Fold depletion in AML.
Output: 15.69 Fold
